Please respond with reported Dmax for every item in the list.
# Tested on: P. aeruginosa (ATCC 27853)
# method: CO-ADD antibacterial assay, growth inhibition (OD600)
# Format: cell-based, Pseudomonas aeruginosa
# condition.details: Pseudomonas aeruginosa, ATCC27853; up to 32 μg/mL; read-out: Dmax P. aeruginosa, maximum % inhibition
Where a name gives a salt, the structure may show the parent alone.
Numbers only, in %.

Record request: Dmax value, item Oc1ccccc1-c1n[nH]c(-c2ccccc2O)n1 [Compound 3, reference compound]
10

Record request: Dmax value, item O=C(O)CC(O)(CC(=O)O)C(=O)O [Compound 1, Trisodium citrate, reference compound]
10.3

Look at each molecule and report its Dmax.
1. Oc1cc2ccccc2cc1O [Compound 2, 2,3-dihydroxynaphthalene, reference compound]
2. O=C(O)c1ccccc1O [Compound 6, salicylic acid, reference compound]
3. O=C(O)CN(CCN(CC(=O)O)Cc1ccccc1O)Cc1ccccc1O [Compound 5, reference compound]

[14.6, 9.76, 69]

====

# Tested on: A. baumannii (ATCC 19606)
# method: CO-ADD antibacterial assay, growth inhibition (OD600)
# Assay type: cell-based, Acinetobacter baumannii
# condition.details: Acinetobacter baumannii, ATCC19606; up to 32 μg/mL; read-out: Dmax A. baumannii, maximum % inhibition
Where a name gives a salt, the structure may show the parent alone.
Quick rule for you: Dmax at 20% or higher means MET, lower means NOT MET.

Consider the following illustrative entries.
Is Dmax at least 20%? Consider O=C(O)CN(CCN(CC(=O)O)Cc1ccccc1O)Cc1ccccc1O [Compound 5, reference compound]
MET

Is Dmax at least 20%? Consider O=C(O)c1ccccc1O [Compound 6, salicylic acid, reference compound]
NOT MET

---
Is Dmax at least 20%? Consider Oc1cc2ccccc2cc1O [Compound 2, 2,3-dihydroxynaphthalene, reference compound]
MET

Is Dmax at least 20%? Consider Oc1ccccc1-c1n[nH]c(-c2ccccc2O)n1 [Compound 3, reference compound]
NOT MET

Is Dmax at least 20%? Consider O=C(O)CC(O)(CC(=O)O)C(=O)O [Compound 1, Trisodium citrate, reference compound]
NOT MET

====

# Test system: S. aureus MRSA (ATCC 43300)
# method: CO-ADD antibacterial assay, growth inhibition (OD600)
# Assay type: cell-based, Staphylococcus aureus
# condition.details: Staphylococcus aureus; up to 32 μg/mL; read-out: Dmax S. aureus (MRSA), maximum % inhibition
Quick rule for you: Dmax at 10% or higher means condition met, lower means condition not met.

Is Dmax at least 10%? Consider O=C(O)CN(CCN(CC(=O)O)Cc1ccccc1O)Cc1ccccc1O [Compound 5, reference compound]
condition met

In the following, a different compound is considered.
Is Dmax at least 10%? Consider Oc1cc2ccccc2cc1O [Compound 2, 2,3-dihydroxynaphthalene, reference compound]
condition met

====

Please respond with reported Dmax for every item in the list.
# Test system: C. neoformans (ATCC 208821)
# method: CO-ADD antifungal assay, growth inhibition (resazurin, OD600-570)
# Format: cell-based, Cryptococcus neoformans
# condition.details: Cryptococcus neoformans, ATCC208821; up to 32 μg/mL; read-out: Dmax C. neoformans, maximum % inhibition
Where a name gives a salt, the structure may show the parent alone.
Numbers only, in %.

Study these solved cases before continuing.
Tell me reported Dmax for Oc1cc2ccccc2cc1O [Compound 2, 2,3-dihydroxynaphthalene, reference compound] , tested with C. neoformans (ATCC 208821).
-9.97

Tell me reported Dmax for O=C(O)CC(O)(CC(=O)O)C(=O)O [Compound 1, Trisodium citrate, reference compound] , tested with C. neoformans (ATCC 208821).
-8.24

Tell me reported Dmax for Oc1ccccc1-c1n[nH]c(-c2ccccc2O)n1 [Compound 3, reference compound] , tested with C. neoformans (ATCC 208821).
-7.23

Tell me reported Dmax for O=C(O)CN(CCN(CC(=O)O)Cc1ccccc1O)Cc1ccccc1O [Compound 5, reference compound] , tested with C. neoformans (ATCC 208821).
-17.5

Now look at this entry.
Tell me reported Dmax for O=C(O)c1ccccc1O [Compound 6, salicylic acid, reference compound] , tested with C. neoformans (ATCC 208821).
-10.7

====

# System: P. aeruginosa (ATCC 27853)
# method: CO-ADD antibacterial assay, growth inhibition (OD600)
# Type: cell-based, Pseudomonas aeruginosa
# condition.details: up to 32 μg/mL
Quick rule for you: Dmax P. aeruginosa, maximum % inhibition at 10% or higher means label 1, lower means label 0.

Consider the following illustrative entries.
Is Dmax P. aeruginosa, maximum % inhibition at least 10%? Consider [K+].[K+].c1ccc2cc3c(cc2c1)[O][Ti-2]12([O]3)([O]c3cc4ccccc4cc3[O]1)[O]c1cc3ccccc3cc1[O]2 [Compound 8, K2[Ti(Naphthalene-2,3-diolate)3]]
label 1

Is Dmax P. aeruginosa, maximum % inhibition at least 10%? Consider O=C1CN2CCN3CC(=O)[O][Ti]([O]1)([O]c1ccccc1C2)[O]c1ccccc1C3 [Compound 11, Ti(HBED)]
label 1

Is Dmax P. aeruginosa, maximum % inhibition at least 10%? Consider [Cl-].[Cl-].[Ti+4].c1cc[cH-]c1.c1cc[cH-]c1 [Compound 13, reference compound]
label 1

---
Is Dmax P. aeruginosa, maximum % inhibition at least 10%? Consider O=C1[O][Ti-2]23([O]C(=O)c4ccccc4[O]2)([O]C(=O)c2ccccc2[O]3)[O]c2ccccc21.[Na+].[Na+] [Compound 12, Na2[Ti(Salicylate)3]]
label 0

Is Dmax P. aeruginosa, maximum % inhibition at least 10%? Consider O=C([O-])C(=O)O.O=C([O-])C(=O)O.[K+].[K+].[O]=[Ti] [Compound 14]
label 0

Is Dmax P. aeruginosa, maximum % inhibition at least 10%? Consider O=C(O)c1ccc(-n2nc3nc2-c2ccccc2[O][Ti]2([O]c4ccccc4-3)[O]c3ccccc3-c3nc(n(-c4ccc(C(=O)O)cc4)n3)-c3ccccc3[O]2)cc1 [Compound 10, titanium(IV) bis(deferasirox)]
label 0

====

# System: K. pneumoniae (ATCC 700603)
# method: CO-ADD antibacterial assay, growth inhibition (OD600)
# Type: cell-based, Klebsiella pneumoniae
# condition.details: Klebsiella pneumoniae, ATCC700603; up to 32 μg/mL; read-out: Dmax K. pneumoniae, maximum % inhibition
Counter-ions that a name gives are not always drawn.
Quick rule for you: Dmax at 10% or higher means true (1), lower means false (0).

Is Dmax at least 10%? Consider Oc1ccccc1-c1n[nH]c(-c2ccccc2O)n1 [Compound 3, reference compound]
false (0)

Is Dmax at least 10%? Consider O=C(O)CC(O)(CC(=O)O)C(=O)O [Compound 1, Trisodium citrate, reference compound]
true (1)

Is Dmax at least 10%? Consider O=C(O)CN(CCN(CC(=O)O)Cc1ccccc1O)Cc1ccccc1O [Compound 5, reference compound]
true (1)

Is Dmax at least 10%? Consider O=C(O)c1ccccc1O [Compound 6, salicylic acid, reference compound]
true (1)

---
Is Dmax at least 10%? Consider Oc1cc2ccccc2cc1O [Compound 2, 2,3-dihydroxynaphthalene, reference compound]
true (1)

====

Please respond with reported Dmax C. neoformans, maximum % inhibition for every item in the list.
# Test system: C. neoformans (ATCC 208821)
# method: CO-ADD antifungal assay, growth inhibition (resazurin, OD600-570)
# Type: cell-based, Cryptococcus neoformans
# condition.details: up to 32 μg/mL
Numbers only, in %.

Record request: Dmax C. neoformans, maximum % inhibition value, item O=C1[O][Ti-2]23([O]C(=O)c4ccccc4[O]2)([O]C(=O)c2ccccc2[O]3)[O]c2ccccc21.[Na+].[Na+] [Compound 12, Na2[Ti(Salicylate)3]]
−5.2

Look at each compound and report its Dmax C. neoformans, maximum % inhibition.
1. O=C(O)c1ccc(-n2nc3nc2-c2ccccc2[O][Ti]2([O]c4ccccc4-3)[O]c3ccccc3-c3nc(n(-c4ccc(C(=O)O)cc4)n3)-c3ccccc3[O]2)cc1
2. [Cl-].[Cl-].[Ti+4].c1cc[cH-]c1.c1cc[cH-]c1 [Compound 13, reference compound]
3. [K+].[K+].c1ccc2cc3c(cc2c1)[O][Ti-2]12([O]3)([O]c3cc4ccccc4cc3[O]1)[O]c1cc3ccccc3cc1[O]2 [Compound 8, K2[Ti(Naphthalene-2,3-diolate)3]]
4. O=C1CN2CCN3CC(=O)[O][Ti]([O]1)([O]c1ccccc1C2)[O]c1ccccc1C3

1: −5.72; 2: 6.5; 3: −1.45; 4: −18.86

====

# System: S. aureus MRSA (ATCC 43300)
# method: CO-ADD antibacterial assay, growth inhibition (OD600)
# Assay type: cell-based, Staphylococcus aureus
# condition.details: Staphylococcus aureus; up to 32 μg/mL; read-out: Dmax S. aureus (MRSA), maximum % inhibition
Where a name gives a salt, the structure may show the parent alone.
observed.property: Dmax (%)
One number for each entry, in %.

Record request: Dmax value, item O=C(O)CC(O)(CC(=O)O)C(=O)O [Compound 1, Trisodium citrate, reference compound]
10.6

Record request: Dmax value, item O=C(O)c1ccccc1O [Compound 6, salicylic acid, reference compound]
13.9

Now look at this entry.
Record request: Dmax value, item Oc1ccccc1-c1n[nH]c(-c2ccccc2O)n1 [Compound 3, reference compound]
-2.34
